Target: DRB1*0901 (Homo sapiens, UniProt P01903+P01911, A100R/A103E/D57H/D86V/F55Y/F60I/F76Y/I96F/K127E/L162R/M171V/P40D/Q125H/Q99R/R33Q/R42F/S133A/S66N/T210M/V115G/W38K/Y107V/Y59G/Y89S)
Experiment: biochemical
Type: binding
No end group written: not given here.
ASSAY METRIC: IC50 (µM)
# output: bare number, implied unit µM

Solved entries:
ALSVSKAKALQAIEL [Peptide 89.0170] :: 4.33
SEVYDFVFADLRIVY [Peptide 1543.48] :: 0.033
WKLIRMECALLYTAK [Peptide 90.0199] :: 4
RYRFQKYKTLFVDVT [Peptide 90.0019] :: 0.226
LKEFLKGTPKKNCIL [Peptide 89.0086] :: 11.9
MAIFGVNPTVAEGFK [Peptide 89.0081] :: 1.56
CMLIQPPKLRSTAAA [Peptide 89.0047] :: 7.54
FQVIELQMALETLNA [Peptide 90.0025] :: 1.97
GCWRQTSREPRESTV [Peptide 1543.46] :: 3.2
DPRWPYLHSRLVVFH [Peptide 89.0113] :: 5.4

Lookup: Name the reported IC50 value associated with the sequence CYSLYGTTLEQQYNK [Peptide 85.0004]
Found: 26

Lookup: And for LSQVKIPKTITVSTG [Peptide 89.0158] ?
Found: 5.48

Lookup: Try this sequence too: LIRMECAIMYTARQM [Peptide 90.0022]
Found: 4.12

Lookup: Input PEWIDRLTVLQHSFN [Peptide 89.0070]
Found: 4.15

Lookup: Try this sequence too: TLAVSKNKALQAIEL [Peptide 89.0150]
Found: 5.22

Lookup: Then what about the sequence KHIRLLECVLMYKARE [Peptide 1601.44] ?
Found: 7.48

Lookup: Continue with DSVDSVNCGVISAAA [Peptide 1601.24]
Found: 6.73

Lookup: Another sequence: EDLRTLQQLFLSTLS [Peptide 1543.21]
Found: 15.5

The measured values listed here are drawn from patent US9340577B2.
